For each entry below, report its effect on crop, Rice (level) value.
- System: rice
- assay procedure: post-emergence stage experiment, crop (Table 1)
- Assay type: in vivo
- stated conditions: post-emergence spray at 4-5 leaf stage, 250 g/ha active ingredient with 450 kg/ha water, rated after 3 weeks in greenhouse

The measured effect on crop, Rice (level) associated with CCOc1c(C(=O)Oc2c(C(=O)c3ccc(C(F)(F)F)c(-n4cc(C)cn4)c3Cl)c(C3CC3)nn2C)cnn1C [Compound 092] reads 2 (Level 2: 5%-20% growth control rate)

The measured effect on crop, Rice (level) associated with Cc1cc(C)n(-c2c(C(F)(F)F)ccc(C(=O)c3c(C)nn(C)c3OC(=O)c3cn(C)nc3C)c2Cl)n1 [Compound 094] reads 0

The measured effect on crop, Rice (level) associated with CCc1nn(C)c(OC(=O)c2cn(C)nc2C)c1C(=O)c1ccc(C(F)(F)F)c(-n2cc(C)cn2)c1Cl [Compound 141] reads 10

---

- Test system: wheat
- assay procedure: post-emergence stage experiment, crop (Table 1)
- Type: in vivo
- stated conditions: post-emergence spray at 4-5 leaf stage, 250 g/ha active ingredient with 450 kg/ha water, rated after 3 weeks in greenhouse
- Source text: The activity level standard of harmful plant destruction (i.e. growth control rate) is as follows: The above described growth control rate is fresh weight control rate. Monocotyledonous and dicotyledonous weed seeds and main crop seeds (i.e. wheat, corn, rice, soybean, cotton, oilseed, millet and sorghum.) were put into a plastic pot loaded with soil. Then covered with 0.5-2 cm soil, the seeds were allowed to grow in good greenhouse environment. […]
measured attribute: effect on crop, Wheat (level)
Reply with the value as a number alone.

The measured effect on crop, Wheat (level) associated with Cc1cc(C)n(-c2c(C(F)(F)F)ccc(C(=O)c3c(C)nn(C)c3O)c2Cl)n1 reads 0

The measured effect on crop, Wheat (level) associated with Cc1cnn(-c2c(C(F)(F)F)ccc(C(=O)c3cnn(C)c3OC(=O)c3cn(C)nc3C)c2Cl)c1 reads 0

The measured effect on crop, Wheat (level) associated with COCCCN(C(C)=O)c1c(C(F)(F)F)ccc(C(=O)c2c(C)nn(C)c2O)c1Cl reads 0

---

- Test system: rice
- assay procedure: post-emergence stage experiment, crop (Table 1)
- Format: in vivo
- Set-up: key: Level 10: completely dead; Level 9: above 95% growth control rate; Level 8: above 90% growth control rate; Level 7: above 80% growth control rate; Level 6: above 70% growth control rate; Level 5: above 60% growth control rate; Level 4: above 50% growth control rate; Level 3: above 20% growth control rate; Level 2: 5%-20% growth control rate; Level 1: below 5% growth control rate
- stated conditions: post-emergence spray at 4-5 leaf stage, 250 g/ha active ingredient with 450 kg/ha water, rated after 3 weeks in greenhouse
For each entry below, report its effect on crop, Rice (level) value.

The measured effect on crop, Rice (level) associated with CCn1ncc(C(=O)c2ccc(C(F)(F)F)c(-n3cc(C)cn3)c2Cl)c1O [Compound 136] reads 10

The measured effect on crop, Rice (level) associated with CCCCOCCCN(C(C)=O)c1c(C(F)(F)F)ccc(C(=O)c2c(C)nn(C)c2O)c1Cl [Compound 011] reads 0

---

- System: corn
- assay procedure: post-emergence stage experiment, crop (Table 1)
- Type: in vivo
- stated conditions: post-emergence spray at 4-5 leaf stage, 250 g/ha active ingredient with 450 kg/ha water, rated after 3 weeks in greenhouse
- From the text: The activity level standard of harmful plant destruction (i.e. growth control rate) is as follows: The above described growth control rate is fresh weight control rate. Monocotyledonous and dicotyledonous weed seeds and main crop seeds (i.e. wheat, corn, rice, soybean, cotton, oilseed, millet and sorghum.) were put into a plastic pot loaded with soil. Then covered with 0.5-2 cm soil, the seeds were allowed to grow in good greenhouse environment. […]
measured attribute: effect on crop, Corn (level)

Value sought: effect on crop, Corn (level), system corn, item CCc1nn(C)c(O)c1C(=O)c1ccc(C(F)(F)F)c(N2CCCCC2=O)c1Cl [Compound 110] . Result: 0

Value sought: effect on crop, Corn (level), system corn, item Cc1nn(C)c(OC(=O)c2cnn(C)c2)c1C(=O)c1ccc(C(F)(F)F)c(N2CCCCC2=O)c1Cl [Compound 039] . Result: 2 (Level 2: 5%-20% growth control rate)

Value sought: effect on crop, Corn (level), system corn, item CCc1nn(C)c(OC(=O)c2cn(C)nc2C)c1C(=O)c1ccc(C(F)(F)F)c(-n2cc(C)cn2)c1Cl [Compound 141] . Result: 0

Value sought: effect on crop, Corn (level), system corn, item Cc1nn(C)c(OC(=O)c2cnn(C)c2)c1C(=O)c1ccc(C(F)(F)F)c(N2CCCCCC2=O)c1Cl [Compound 057] . Result: 0

Value sought: effect on crop, Corn (level), system corn, item Cc1cnn(-c2c(C(F)(F)F)ccc(C(=O)c3c(C)nn(C)c3OC(=O)c3cn(C)nc3C)c2Cl)c1 [Compound 088] . Result: 0

Value sought: effect on crop, Corn (level), system corn, item CCn1nc(C)c(C(=O)c2ccc(C(F)(F)F)c(-n3cccn3)c2Cl)c1O [Compound 128] . Result: 0

---

- Test system: alopecurus japonicas
- assay procedure: wheat field resistant weed control, greenhouse spray at 4 leaf stage
- Type: in vivo
- Parameters: key: Level 10: completely dead; Level 9: above 95% growth control rate; Level 8: above 90% growth control rate; Level 7: above 80% growth control rate; Level 6: above 70% growth control rate; Level 5: above 60% growth control rate; Level 4: above 50% growth control rate; Level 3: above 20% growth control rate; Level 2: 5%-20% growth control rate; Level 1: below 5% growth control rate
- stated conditions: 8 g/mu; sprayed at 4 leaf stage; 4 weeks after treatment; resistant to ALS and ACCase inhibitor herbicides
For each entry below, report its Alopecurus japonicas weed controlling effect (activity level) value.
Reply with the value as a number alone.

The measured Alopecurus japonicas weed controlling effect (activity level) associated with Cn1nc(C2CC2)c(C(=O)c2ccc(C(F)(F)F)c(N3CCCCC3=O)c2Cl)c1O reads 10

The measured Alopecurus japonicas weed controlling effect (activity level) associated with CCOc1c(C(=O)Oc2c(C(=O)c3ccc(C(F)(F)F)c(N4CCCCC4=O)c3Cl)c(C3CC3)nn2C)cnn1C reads 10

The measured Alopecurus japonicas weed controlling effect (activity level) associated with CCn1nc(C2CC2)c(C(=O)c2ccc(C(F)(F)F)c(N3CCCCC3=O)c2Cl)c1OC(=O)c1cn(C)nc1C reads 10

The measured Alopecurus japonicas weed controlling effect (activity level) associated with Cc1nn(C)cc1C(=O)Oc1c(C(=O)c2ccc(C(F)(F)F)c(N3CCCC3=O)c2Cl)c(C2CC2)nn1C reads 10

The measured Alopecurus japonicas weed controlling effect (activity level) associated with Cn1cc(C(=O)Oc2c(C(=O)c3ccc(C(F)(F)F)c(N4CCCCC4=O)c3Cl)c(C3CC3)nn2C)cn1 reads 10

The measured Alopecurus japonicas weed controlling effect (activity level) associated with CCOc1c(C(=O)Oc2c(C(=O)c3ccc(C(F)(F)F)c(N4CCCC4=O)c3Cl)c(C)nn2C)cnn1C reads 10

The measured Alopecurus japonicas weed controlling effect (activity level) associated with CCOc1c(C(=O)Oc2c(C(=O)c3ccc(C(F)(F)F)c(N4CCCC4=O)c3Cl)c(C3CC3)nn2C)cnn1C reads 10

The measured Alopecurus japonicas weed controlling effect (activity level) associated with Cc1nn(C)cc1C(=O)Oc1c(C(=O)c2ccc(C(F)(F)F)c(N3CCCC3=O)c2Cl)c(C)nn1C reads 10

---

- Test system: wheat
- assay procedure: wheat field test, crop selectivity, greenhouse spray at 4 leaf stage
- Type: in vivo
- stated conditions: 8 g/mu; sprayed at 4 leaf stage; 4 weeks after treatment
For each entry below, report its Wheat (activity level, crop damage) value.
Reply with the value as a number alone.

The measured Wheat (activity level, crop damage) associated with Cn1nc(C2CC2)c(C(=O)c2ccc(C(F)(F)F)c(N3CCCCC3=O)c2Cl)c1O [Compound 046] reads 0

The measured Wheat (activity level, crop damage) associated with Cc1nn(C)c(O)c1C(=O)c1ccc(C(F)(F)F)c(N2CCCCC2=O)c1Cl [Compound 035] reads 0

---

- Tested on: corn
- assay procedure: post-emergence stage experiment, crop (Table 1)
- Format: in vivo
- stated conditions: post-emergence spray at 4-5 leaf stage, 250 g/ha active ingredient with 450 kg/ha water, rated after 3 weeks in greenhouse
measured attribute: effect on crop, Corn (level)

The measured effect on crop, Corn (level) associated with CCOc1c(C(=O)Oc2c(C(=O)c3ccc(C(F)(F)F)c(-n4cc(C)cn4)c3Cl)cnn2C)cnn1C reads 2 (Level 2: 5%-20% growth control rate)

---

- System: wheat
- assay procedure: wheat field test, crop selectivity, greenhouse spray at 4 leaf stage
- Type: in vivo
- stated conditions: 16 g/mu; sprayed at 4 leaf stage; 4 weeks after treatment
measured attribute: Wheat (activity level, crop damage)

The measured Wheat (activity level, crop damage) associated with Cn1nc(C2CC2)c(C(=O)c2ccc(C(F)(F)F)c(N3CCCCC3=O)c2Cl)c1O [Compound 046] reads 0
